Tested on: K4 kissing-loop RNA reporter
assay.method.text: apparent KD of K4 kissing-loop reporter; higher = weaker reporter binding
test.conditions: Eterna round: R107; input ligand: tryptophan 2.4 mM
experimental.endpoint: apparent KD of K4 kissing-loop reporter

entry.sequence: AGGAUCCGUCGACAAAAGUCGACAUAAUCCAAGGAUAUGACGAAAGUCAGAAGGUGGACAUAAGUCCAGUGAUGUUGGAGGAUCC [FmnA 16 #SwitchBubble #K4Late]
tgt: K4 kissing-loop RNA reporter
experimental.endpoint: apparent KD of K4 kissing-loop reporter
obs.value: 351 nM
//
entry.sequence: GGAUAGGACAGAGGAUAUGGGCUAGGCAAGAAUAACUUGUCUAGCAAAUCCAUGAGGAGUGAUGUUCCAGAAGGCUGUCCUAUCG [FmnBX 1 - #SwitchBubble #StraticStem #DoubleMagnetSystem]
tgt: K4 kissing-loop RNA reporter
experimental.endpoint: apparent KD of K4 kissing-loop reporter
obs.value: 143 nM
//
entry.sequence: UCCACGCUUAGAGGAUAUCGGAUUAGAGUGAUGUUCUAAAGACGCCCAGUGAUGUUGGAUGGUAUACGAGAAGGCUGUGGCGUGU [Same State FMN B GF5]
tgt: K4 kissing-loop RNA reporter
experimental.endpoint: apparent KD of K4 kissing-loop reporter
obs.value: 410 nM

---

Quick reference: apparent KD of K4 kissing-loop reporter of the listed items.
System: K4 kissing-loop RNA reporter;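 note: bound reporter read as fluorescence of individual clusters on recovered sequencing chips by microscopy, with normalized cluster intensities fitted with a binding model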
assay.method.text: apparent KD of K4 kissing-loop reporter; higher = weaker reporter binding
test.conditions: Eterna round: R107; input ligand: theophylline 20 uM
experimental.endpoint: apparent KD of K4 kissing-loop reporter (nM)

entry.sequence: UGAUCAACAUCUGAUACCAGUCGCUCGAGUAAUCAACCGUGGCUAGUGAUGUUGGCUUUUGACCCUUGGCAGCAGAAUCGUGUCA [theeternabot_sameState_KL_Theo_B_20]
obs.value: 189

entry.sequence: AGACUACCACACUGUCAAUAGACAGUGUACUAGGAUAUGCUGAUAAGCAGAAGGAGUGAUGUUCCUAGGUAGUCAAUAAAAUAAU [FmnAX 13 U28]
obs.value: 629

entry.sequence: GAUAUAGUGAUGUUAUAUACUGAUAGACAACGAGGACCGGUACGGCCGCCACUCGAGAGGGUGAAAAUGGUGAUAAAAUAAUGAU [#03 K4 Tryptophan A Exclusion]
obs.value: 322

entry.sequence: UACAUCGAGCAGAGUGAUGUUUUGUGCGAUACCAGCAAGUGCAAGUGCCCUUGGCAGCGCAAGCGGUUGUAUGUAGGACCGGACG [theeternabot_exclusion_KL_Theo_A_21]
obs.value: 964

---

Test system: MS2 coat protein
assay.method.text: apparent KD of MS2 coat protein; designed switch direction (-1 OFF switch, 1 ON switch): -1; higher = weaker reporter binding
test.conditions: Eterna round: R95; input ligand: microRNA oligo, concentration not stated
Quick reference: apparent KD of MS2 coat protein of the listed items.
experimental.endpoint: apparent KD of MS2 coat protein (µM)

entry.sequence: AGAUCACAUGAGGAUCACCCAUGUCAGGAUAUGAUACUAUGUACUUCGGUACAUAGUAUCAGAAGGGAUAUAAA [Ex1-3: 68] (puzzle: Exclusion 1)
experimental.endpoint: apparent KD of MS2 coat protein
endpoint.unit: µM
obs.value: 0.0751
--
entry.sequence: GAUUAUGCGAGCUUUAGGGACAUGAGGAUCACCCAUGUUCGUCUUAUUGGUCUAAGUGCACUGACAUACCUAAAUCU [JMF 84] (puzzle: Sensor v3, turn-off variant 1)
experimental.endpoint: apparent KD of MS2 coat protein
endpoint.unit: µM
obs.value: 0.0315
--
entry.sequence: AAUAACAGAGGAUAUACUGUUUUAUGUGUUUGUUAUUUUGAACAUGAGGAUCACCCAUGUAGAAGGCUGAGUAA [JMF 37] (puzzle: Exclusion 2)
experimental.endpoint: apparent KD of MS2 coat protein
endpoint.unit: µM
obs.value: 0.0236
--
entry.sequence: AUGGUACAUGAGGAUCACCCAUGUUAGGAUAUCGCGUGUUCUAAAACUAAGAGACACACGAGAAGGGACGACAU (puzzle: Exclusion 1)
experimental.endpoint: apparent KD of MS2 coat protein
endpoint.unit: µM
obs.value: 0.0678
--
entry.sequence: ACAAGCUUUUUGCAUGUUAGUUUUGUUGCUUCGUAUGUAACAUGAGGAUCACCCAUGUAAGACUGAUGUCGUCGUUU [JR_SV3TOV2_Sub088] (puzzle: Sensor v3, turn-off variant 2)
experimental.endpoint: apparent KD of MS2 coat protein
endpoint.unit: µM
obs.value: 0.0478
--
entry.sequence: UAUAAAAUAUAGGAUAUCGAAUAUAUUAUUUAACGAGAAGGAUGAACAUGAGGAUCACCCAUGUGGUAUCAUGG [Mat - Exclusion 6 - JL Mod - D37] (puzzle: Exclusion 6)
experimental.endpoint: apparent KD of MS2 coat protein
endpoint.unit: µM
obs.value: 0.255
--
entry.sequence: GAUCCACAUGAGGAUCACCCAUGUGAGGAUAUGAUACUAUGUACUUCGGUACAUAGUAUCAGAAGGCACGGAUC [Ex1-3: 54] (puzzle: Exclusion 1)
experimental.endpoint: apparent KD of MS2 coat protein
endpoint.unit: µM
obs.value: 0.0246
--
entry.sequence: CUUUUGGCAGGAUAUGCUUUUUUUGACAUGAGGAUCACCCAUGUGAUGCAGUUUGGGUUUGCAGAAGGGCCUGAGU [JR_E5_Sub035] (puzzle: Exclusion 5)
experimental.endpoint: apparent KD of MS2 coat protein
endpoint.unit: µM
obs.value: 0.101
--
entry.sequence: UAGAAACAUGAGGAUCACCCAUGUGAGGAUAUGAAAAAGAAAAGAAAAGAAAGAAGAAUCAGAAGGCACAAAGG [salish99-ex1_r3_082] (puzzle: Exclusion 1)
experimental.endpoint: apparent KD of MS2 coat protein
endpoint.unit: µM
obs.value: 0.0358
--
entry.sequence: CCUAGACAUGAGGAUCACCCAUGUGAGGAUAUGAUGCGAUCGUCGAAAGACGAUAGCAUCAGAAGGCACAUAUG [Fiskers Ex 1 - 5] (puzzle: Exclusion 1)
experimental.endpoint: apparent KD of MS2 coat protein
endpoint.unit: µM
obs.value: 0.0369

---

System: MS2 coat protein
assay.method.text: apparent KD of MS2 coat protein; designed switch direction (-1 OFF switch, 1 ON switch): -1; higher = weaker reporter binding
test.conditions: input ligand: FMN 200 uM
Quick reference: apparent KD of MS2 coat protein of the listed items.
experimental.endpoint: apparent KD of MS2 coat protein (nM)

entry.sequence: GGAUCGAAUGUGAGGAUAUGCUGGUCCUUGGAUCAGCAGAAGGCACAUGAGGAUCACCCAUGUGAUACCGAUCC [Eli bmx4 4.70] (Eterna round: R97, puzzle: Brourd's mod of Exclusion 4)
tgt: MS2 coat protein
experimental.endpoint: apparent KD of MS2 coat protein
obs.value: 255
--
entry.sequence: GUAGAGUCAGGAUAUACAAGAUCGAAAGAUCAAAGAUCCAUACAUGAGGAUCACCCAUGUAGAAGGGACUCUAC [Eli x2 4.10] (Eterna round: R97, puzzle: Exclusion 2)
tgt: MS2 coat protein
experimental.endpoint: apparent KD of MS2 coat protein
obs.value: 73.5
--
entry.sequence: AAGCAUUGCCAAAGGUAGUGCAAAACAUGAGGAUCACCCAUGUAGGAUAUGGUAGGCAAAGCUUACCAGAAGGACAUGAUAAAU [Mat - Exclusion NG 3 - Mod of JL - D19] (Eterna round: R96, puzzle: Exclusion NG 3)
tgt: MS2 coat protein
experimental.endpoint: apparent KD of MS2 coat protein
obs.value: 218
--
entry.sequence: GGUGAAGCAGGAUAUGUAUCGAUAUACAUGAGGAUCACCCAUGUCAUGUUUGAAUCGCAUAUAGAAGGGCUUCACC [Exclusion 5 (FMN-MS2 slide)] (Eterna round: R97, puzzle: Exclusion 5)
tgt: MS2 coat protein
experimental.endpoint: apparent KD of MS2 coat protein
obs.value: 58.1
--
entry.sequence: CCAAACUGAGGAUAUACAUGAGGAUCACCCAUGUGCCCGCGGUCAUAUGUAGCCUAGUGUAGAAGGCAGAAAAC [Rearle] (Eterna round: R96, puzzle: Exclusion 3)
tgt: MS2 coat protein
experimental.endpoint: apparent KD of MS2 coat protein
obs.value: 24.9

---

Quick reference: apparent KD of MS2 coat protein of the listed items.
System: MS2 coat protein
assay.method.text: apparent KD of MS2 coat protein, switch ON state; designed switch direction (-1 OFF switch, 1 ON switch): 1; higher = weaker reporter binding
test.conditions: FMN input: 0 or 200 uM; Eterna round: R93 (includes R88 designs)

entry.sequence: AGAAAUAAAAGGGAGGAUAUUCAAAAAGGGACAUGAGGAUCACCCAUGUAAAAGAAAAUAAAAUGGGAGAAGGCUCAAAAUAAAG [80%, More Helter Skelter 2]
apparent KD of MS2 coat protein: 1130 nM

entry.sequence: GGGAGACAUGAGGAUCACCCAUGUGAGAAGAGGCGAGGAUAUCGAAAGAAAGAAGAGAAACGAGAAGGCGCGAGGC [salish99-SS1-063]
apparent KD of MS2 coat protein: 37.5 nM

entry.sequence: AACAAUCUAUCUGAGGAUAUGUGUCGAAAGACAUGAGGAUCACCCAUGUGAAAACAUGGAAAAACACAGAAGGCAGAUAGAUUGA [SS2: 1150]
apparent KD of MS2 coat protein: 147 nM

entry.sequence: CAGCGCUGUCGAGAGGAUAUGCGGUGAAGGACAUGAGGAUCACCCAUGUAAGCGAUAGUAUUACGGUAGAAGGCUCUACAGCUGC [Isdianbia]
apparent KD of MS2 coat protein: 41.8 nM

entry.sequence: AACAAUCUAUCUGAGGAUAUGUGUCGAAAGACAUGAGGAUCACCCAUGUAAAAACAUGAAAAGAUACAGAAGGCAGAUAGAUUGA [SS2: 1156]
apparent KD of MS2 coat protein: 18.1 nM

entry.sequence: CGGAGACAUGAGGAUCACCCAUGUGAGAAGAGGCGAGGAUAUCGAAAGAAAGAAGAGAAACGAGAAGGCGCGAGUU [salish99-SS1-070]
apparent KD of MS2 coat protein: 21.5 nM

entry.sequence: AUAAAACAUGAGGAUCACCCAUGUAGACAUAUGGGAGGAUAUACUAGAUCGAAAGAUCUAGUAGAAGGUCUUAAAA [JL Mod of Eli 10]
apparent KD of MS2 coat protein: 205 nM

entry.sequence: GUAGAACAUGAGGAUCACCCAUGUGAGUACAGUGUAGGAUAUGGGCAUGAGAAGUCAUUUCUAGAAGGGCAAAUAA [Raatbiin]
apparent KD of MS2 coat protein: 207 nM

entry.sequence: AAGAAACAUGAGGAUCACCCAUGUAAGAUAAACACAGGAUAUGCGAAAGAAACAAAAGAAGCAGAAGGGUGAAGAA [Mat - Same State 1 - Tesla mod - D146]
apparent KD of MS2 coat protein: 17.1 nM

entry.sequence: GCAGGGCCGUACUAGGAUAUGGGUGUAAAGACAUGAGGAUCACCCAUGUGAUGGCAAAACAAAGCUCAGAAGGAGUCGCGGCCCA [Cemavebi]
apparent KD of MS2 coat protein: 20.7 nM

entry.sequence: UGGAGACAUGAGGAUCACCCAUGUGAGAAGAGGCGAGGAUAUCGAAAAAAAAAAAAAAAACGAGAAGGCGCGAGAU [salish99-SS1-008]
apparent KD of MS2 coat protein: 25.9 nM

entry.sequence: GGAAAACAUGAGGAUCACCCAUGUGAAAACGUGGGAGGAUAUGCAUGGAAACCAUACUGUGCAGAAGGCCCAUGUC [EteRNA is fun!]
apparent KD of MS2 coat protein: 17.2 nM

entry.sequence: AUAAAACAUGAGGAUCACCCAUGUAGAAAUAUGGGAGGAUAUACUAGAUCGAAAGAUCUAGUAGAAGGCCUCAAAG [JL Mod of Eli 2]
apparent KD of MS2 coat protein: 58.8 nM

entry.sequence: GAGGACAUAGUACAGGAUAUAUGAAUAGUUACAUGAGGAUCACCCAUGUGCAUUAAUAUGCGAACAUAGAAGGGUGGUAGUUAUC [Mat - Same state - Malcolm Mod - D128]
apparent KD of MS2 coat protein: 119 nM

entry.sequence: AUAAAACAUGAGGAUCACCCAUGUCAAGAGUAUUAAGGAUAUGAGCCAGGGAACUGGCGAUCAGAAGGUGAGACUC [Atxerexebe]
apparent KD of MS2 coat protein: 160 nM

From: the supplement of paper PMC9170038
